Measured inhibition, listed per entry.
Study Target: UniProt P21588
Procedure Details: Inhibition of rat Ecto-5'-nucleotidase transfected in COS7 cells at 1 mM preincubated for 10 mins followed by AMP addition measured after 10 mins
Type: cell-based
Condition Details: COS-7
Number in %, nothing else.

Worked cases, answers included:
| Molecule | inhibition (%) |
| --- | --- |
| COC1Oc2ccc(C)cc2C(=O)/C1=C\Nc1cccc(S(N)(=O)=O)c1 (racemic) | 47.5 |
| CCCCOC1Oc2ccccc2C(=O)/C1=C\Nc1ccc(S(N)(=O)=O)cc1 (racemic) | 6.66 |
| COC1Oc2ccc(C)cc2C(=O)/C1=C\Nc1ccccc1S(N)(=O)=O (racemic) | 47.8 |

# evaluate next
In: Form field: reported inhibition of CCOC1Oc2ccc(CC)cc2C(=O)/C1=C\Nc1cccc(S(N)(=O)=O)c1 (racemic)
Out: 40.5

----------
Measured Ki, listed per entry.
Study Target: 5'-nucleotidase (Rattus norvegicus, UniProt P21588)
Sequence (P21588 whole entry): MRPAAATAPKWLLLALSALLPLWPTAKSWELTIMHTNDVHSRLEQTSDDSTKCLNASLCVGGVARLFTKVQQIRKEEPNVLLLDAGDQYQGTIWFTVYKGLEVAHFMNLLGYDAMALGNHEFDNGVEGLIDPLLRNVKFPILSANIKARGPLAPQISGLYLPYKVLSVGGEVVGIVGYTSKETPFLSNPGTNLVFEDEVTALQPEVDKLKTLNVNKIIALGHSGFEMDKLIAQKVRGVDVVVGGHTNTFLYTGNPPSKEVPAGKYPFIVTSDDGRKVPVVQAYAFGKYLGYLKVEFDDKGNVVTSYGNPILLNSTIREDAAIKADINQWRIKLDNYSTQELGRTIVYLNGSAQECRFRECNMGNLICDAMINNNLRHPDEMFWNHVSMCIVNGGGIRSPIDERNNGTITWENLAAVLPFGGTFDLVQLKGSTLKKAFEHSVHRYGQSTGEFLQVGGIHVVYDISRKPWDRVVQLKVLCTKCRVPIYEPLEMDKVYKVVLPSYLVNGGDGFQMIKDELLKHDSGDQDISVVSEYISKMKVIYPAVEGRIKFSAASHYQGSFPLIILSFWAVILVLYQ
Procedure Details: Inhibition of rat Ecto-5'-nucleotidase transfected in COS7 cells preincubated for 10 mins followed by AMP addition measured after 10 mins
Number in nM, nothing else.

| Compound | Study Target | Units Text | Ki |
| --- | --- | --- | --- |
| COC1Oc2ccccc2C(=O)/C1=C\Nc1cccc(S(N)(=O)=O)c1 (racemic) | 5'-nucleotidase (Rattus norvegicus, UniProt P21588) | nM | 134 |
| COC1Oc2ccc(Cl)cc2C(=O)/C1=C\Nc1ccc(S(N)(=O)=O)cc1 (racemic) | 5'-nucleotidase (Rattus norvegicus, UniProt P21588) | nM | 81 |
| COC1Oc2ccc(Cl)cc2C(=O)/C1=C\Nc1ccccc1S(N)(=O)=O (racemic) | 5'-nucleotidase (Rattus norvegicus, UniProt P21588) | nM | 62 |

In: Form field: reported Ki of COC1Oc2ccc(Cl)cc2C(=O)/C1=C\Nc1cccc(S(N)(=O)=O)c1 (racemic)
Out: 113

Source: ChEMBL document CHEMBL3797053
